Molecular target: Vg5/Vd2 T cell receptor on SKW3 cells (UniProt A0JD36)
Sequence (A0JD36 20-115): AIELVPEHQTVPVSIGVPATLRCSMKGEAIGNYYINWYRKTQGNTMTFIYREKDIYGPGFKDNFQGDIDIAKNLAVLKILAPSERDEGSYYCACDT
Assay: flow cytometry, dose-response binding at 37 C on SKW3 cells expressing Vg5/Vd2

binder	Max. Activity (fold over background)
VG9B88 (antibody, human IgG1, kappa, V domains shown) VH: EVQLVESGGGLVKPGGSLRLSCAVSGFTFSSYTMNWVRQAPGKGLEWVSSISTSSSYIDYADSVKGRFTISRDNAKKSLYLQMNSLRAEDTAVYYCARDGDMVAPIKGSFDYWGQGTLVTVSS VL: EIVLTQSPLSLPVTPGEPASISCRSSQSLLNSDDGNTYLDWYLQKPGQSPQLLIYTLSYRASGVPDRFSGSGSGTDFTLKISRVEAEDVGVYYCMQRIEFPITFGQGTRLEIKR	18.8

The measurements presented in this section are drawn from patent US20220125947A1.
